Values from PubChem BioAssay (NCI)

So I've got a bunch of molecules here, and I need their TGI values.
tested on: SK-OV-3 ovarian; experiment: NCI tumour cell line growth inhibition, 48 h

Request body: readout TGI, system SK-OV-3 ovarian, query Oc1c(CN2CCOCC2)ccc(CN2CCOCC2)c1O . Return the value. > 100 µM

Request body: readout TGI, system SK-OV-3 ovarian, query O=C(CCC(C(=O)OCc1ccccc1)C(=O)OCc1ccccc1)Nc1ccc(OCc2ccccc2)cc1 . Return the value. > 100 µM

Request body: readout TGI, system SK-OV-3 ovarian, query CNC(=O)C(CCc1ccccc1)NC(=O)C(CC(=O)NO)CC(C)C (stereo not given) . Return the value. > 25 µM

Request body: readout TGI, system SK-OV-3 ovarian, query NCCc1c[nH]c2ccc(OC(=O)C(=O)O)cc12 . Return the value. > 100 µM

Request body: readout TGI, system SK-OV-3 ovarian, query CN(NC(=O)/C(=C/c1ccc(Cl)cc1)NC(=O)c1ccccc1)c1cn[nH]c(=O)c1Cl . Return the value. > 100 µM

----------
system: MALME-3M melanoma; experiment: NCI tumour cell line growth inhibition, 48 h
So I've got a bunch of compounds here, and I need their TGI values.

Report TGI for CN(/N=C(\C(=O)O)c1ccccc1)C1=NCCCCN1 please. > 100 µM

Report TGI for Cc1cc(-n2c(/C=C/c3ccc(Cl)cc3)nc3cc(Cl)ccc3c2=O)on1 please. > 50 µM

Report TGI for COC(=O)[C@](NC(=O)OCc1ccccc1)([C@@H](C)S(=O)c1ccc(C)cc1)C(F)(F)F (some centres undefined) please. > 100 µM

Report TGI for COc1cc(/C=C/C(=O)Oc2ccc(NC(C)=O)cc2)ccc1C(=O)OCc1ccccc1 please. > 100 µM

----------
So I've got a bunch of compounds here, and I need their TGI values.
system: K-562 leukemia; experiment: NCI tumour cell line growth inhibition, 48 h

Report TGI for NCCc1c[nH]c2ccc(OC(=O)C(=O)O)cc12 please. > 100 µM

Report TGI for COC(=O)[C@](NC(=O)OCc1ccccc1)([C@@H](C)S(=O)c1ccc(C)cc1)C(F)(F)F (stereo partly drawn) please. > 100 µM

Report TGI for CCCCc1c2c(nc3c1CCCC3=O)C(=O)CCC2 please. > 100 µM

----------
So I've got a bunch of compounds here, and I need their TGI values.
system: SF-268 CNS; experiment: NCI tumour cell line growth inhibition, 48 h

Report TGI for CN(NC(=O)/C(=C/c1ccc(Cl)cc1)NC(=O)c1ccccc1)c1cn[nH]c(=O)c1Cl please. > 100 µM

Report TGI for CCC(O)CC1OC2(CCC1C)CC1OC(=O)/C=C\C(C)(O)C(O)C(C)C(O)C(OC3CC(OC)C(O)C(C)O3)C(O)C(C)(O)CCC/C=C/C3CC(C)COC3(O)CC(O2)C1C (centres undefined) please. 90.1 µM

Report TGI for CC1=C(C(=O)Nc2ccc([N+](=O)[O-])cc2)C(c2cccc([N+](=O)[O-])c2)C(C(=O)Nc2ccc([N+](=O)[O-])cc2)=C(C)N1 please. > 100 µM

Report TGI for O=[N+]([O-])c1ccc(C(Br)c2ccc([N+](=O)[O-])cc2)cc1 please. 17.7 µM

Report TGI for CCCOP1(=O)C=C(O)C(Cl)=C(C)C1 (centres undefined) please. > 100 µM

Report TGI for Cc1c([C@H](C(Cl)Cl)[C@H](O)[C@H]2C[C@H](C)C(=O)O2)ccc2c1C(=O)[C@H]1[C@H]2C[C@@H](Br)[C@@]23O[C@@H](CO[C@H]2O)CC13C (some centres undefined) please. > 50 µM

Report TGI for C=C1c2c(C)nn(-c3ccc(OC)cc3)c2N(C)C23C[C@@H]1C1(C)c4c(C)nn(-c5ccc(OC)cc5)c4N(C)C(C)(C[C@H]12)C3 (some centres undefined) please. 70.5 µM

Report TGI for COC(=O)C1(NC(=O)C(CC(=O)OCc2ccccc2)NC(=O)OCc2ccccc2)CCCCCCC1 (centres undefined) please. > 100 µM

Report TGI for COc1cc(C)c2c(c1C=O)Oc1c(c(C)c(O)c3c1C(O)OC3=O)OC2=O (centres undefined) please. 68 µM

Report TGI for O=C1O[C@@H](c2ccccc2)C[C@H]1CN1CCOCC1 please. > 100 µM

Report TGI for c1ccc(NNC2=NCCN2)cc1 please. > 100 µM

Report TGI for CC(C)=CC(=O)c1[nH]c2ccccc2c1CC(=O)NCCc1cn(C(c2ccccc2)(c2ccccc2)c2ccccc2)cn1 please. > 53.3 µM

Report TGI for COc1cc(C(=O)c2c(-c3ccccc3)oc3c(OC)cccc23)cc(OC)c1O please. > 100 µM

Report TGI for CCOC(=O)/C=C/C1=C(c2ccsc2)c2ccc(OC)cc2CC1 please. 58.1 µM
